Numbers sourced from ChEMBL document CHEMBL5500399.

Test: Cmax in BALB/c mouse at 5 mg/kg, iv measured upto 48 hrs by LC-MS/MS analysis
Format: ADME, organism-based
Settings: in vivo
Reported Property: Cmax (ng/mL)

- Compound: "CC(c1nc(-c2ccc(-c3ccc(C(=O)O)s3)cc2)no1)c1cccc2ccccc12 (configuration not stated)"
  Endpoint Result: 14200
- Compound: "Cc1ccc(-c2noc(C(C)c3ccc(-c4ccccc4)c(F)c3)n2)cc1NCc1ccc(C(=O)O)s1 (racemic)"
  Endpoint Result: 10600

* * *

# remaining at 0.5 h, 1 µM per entry
Test: Metabolic stability in mouse hepatocytes assessed as compound remaining at 1 uM measured after 30 mins
Assay type: ADME, cell-based, Hepatocyte
Settings: read-out: Stability
Reported Property: remaining at 0.5 h, 1 µM

- Compound: "CC(c1nc(-c2cc(NCc3ccc(C(=O)O)s3)cc(C(F)(F)F)c2)no1)c1cccc2ccccc12 (stereo not drawn)"
  Reported Property: "remaining at 0.5 h, 1 µM"
  Endpoint Result: "68%"
- Compound: "CC(c1nc(-c2cc(NCc3ccc(C(=O)O)cc3)cc(C(F)(F)F)c2)no1)c1cccc2ccccc12 (stereo not drawn)"
  Reported Property: "remaining at 0.5 h, 1 µM"
  Endpoint Result: "28.8%"
- Compound: "Cc1ccc(N)cc1C(=O)N[C@H](C)c1cccc2ccccc12"
  Reported Property: "remaining at 0.5 h, 1 µM"
  Endpoint Result: "6.4%"
